- Tested on: Fer (mouse)
- Assay summary: phosphorylation enrichment, bacterial display (enrichment ratio); higher = better substrate or ligand; peptides without Tyr show the background;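 note: 11-residue human phosphosite peptides and single-mutation variants displayed on the E. coli surface, counted by deep sequencing, each peptide's frequency after selection divided by its frequency in the unselected input library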;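 note: frequency after pTyr selection over input frequency; kinase dosed for 20-30% of maximal phosphorylation in three min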
Each record here notes measured phosphorylation enrichment.

Enquiry: Which phosphorylation enrichment is reported for this sequence? DLAHKYHGGGG [HBB_Y146_A141D]
Return: 0.32

Enquiry: Which phosphorylation enrichment is reported for this sequence? WASGIYFVPKG [APBB1IP_Y340_R335W_YF]
Return: 2.87

Enquiry: Which phosphorylation enrichment is reported for this sequence? QHNPEYVQQAS [LRRC7_Y1058]
Return: 0.73

Enquiry: Which phosphorylation enrichment is reported for this sequence? LRNIDYYRLDG [ATRX_Y2083]
Return: 0.499

Enquiry: Which phosphorylation enrichment is reported for this sequence? GIKAAYEAELG [LMNA_Y81]
Return: 0.446

Enquiry: Which phosphorylation enrichment is reported for this sequence? YQNGMYGLHQD [SGSH_Y89_H84Y]
Return: 0.55

Enquiry: Which phosphorylation enrichment is reported for this sequence? DWQQEYVLNES [TGM1_Y267_R264Q]
Return: 0.434

Enquiry: Which phosphorylation enrichment is reported for this sequence? VYYYSYLLKNH [PTEN_Y180]
Return: 0.82

Enquiry: Which phosphorylation enrichment is reported for this sequence? HKLSYYEYDFE [BTK_Y40]
Return: 0.64

Enquiry: Which phosphorylation enrichment is reported for this sequence? FFHCTYKKRMI [CLEC12A_Y242_YF]
Return: 0.39

// switching to the query sequence
Enquiry: Which phosphorylation enrichment is reported for this sequence? AEYGLYGAMVR [VSX2_Y222]
Return: 2.03

* * *

- System: FGFR3 (UniProt P22607)
- Sequence (P22607 whole entry, looked up): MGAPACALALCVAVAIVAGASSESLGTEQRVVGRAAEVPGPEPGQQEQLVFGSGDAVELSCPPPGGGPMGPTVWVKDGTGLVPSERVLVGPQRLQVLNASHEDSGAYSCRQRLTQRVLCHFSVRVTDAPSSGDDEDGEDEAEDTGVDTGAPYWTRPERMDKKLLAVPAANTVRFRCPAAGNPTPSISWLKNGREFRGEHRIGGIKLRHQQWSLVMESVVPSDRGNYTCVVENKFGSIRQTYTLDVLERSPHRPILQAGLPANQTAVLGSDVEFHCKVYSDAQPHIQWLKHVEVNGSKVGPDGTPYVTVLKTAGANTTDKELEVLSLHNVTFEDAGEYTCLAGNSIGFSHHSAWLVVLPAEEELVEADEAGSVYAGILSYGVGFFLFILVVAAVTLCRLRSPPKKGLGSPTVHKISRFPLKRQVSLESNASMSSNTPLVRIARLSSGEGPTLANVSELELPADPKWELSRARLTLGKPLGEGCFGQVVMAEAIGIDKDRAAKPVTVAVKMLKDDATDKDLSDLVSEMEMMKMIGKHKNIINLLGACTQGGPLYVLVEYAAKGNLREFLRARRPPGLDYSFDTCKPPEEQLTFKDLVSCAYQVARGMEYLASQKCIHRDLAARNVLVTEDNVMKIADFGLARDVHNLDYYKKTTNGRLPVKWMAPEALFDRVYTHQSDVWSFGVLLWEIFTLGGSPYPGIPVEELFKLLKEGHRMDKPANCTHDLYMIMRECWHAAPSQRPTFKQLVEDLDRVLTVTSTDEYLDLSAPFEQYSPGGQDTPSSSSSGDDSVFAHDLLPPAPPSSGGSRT
- Assay summary: phosphorylation enrichment, bacterial display (enrichment ratio); higher = better substrate or ligand; peptides without Tyr show the background
Each record here notes measured phosphorylation enrichment.

Record excerpt, results attached:
Enquiry: Which phosphorylation enrichment is reported for this sequence? NRDNTYNRVSE [FGA_Y127]
Return: 0.469

Enquiry: Which phosphorylation enrichment is reported for this sequence? TVSRPYSFIEF [SEC22B_Y110]
Return: 2.19

More entries:
Enquiry: Which phosphorylation enrichment is reported for this sequence? HHTDEYEYDEL [TGM1_Y134]
Return: 1.05

Enquiry: Which phosphorylation enrichment is reported for this sequence? HFGCVYHGTLL [MET_Y1093]
Return: 1.19

Enquiry: Which phosphorylation enrichment is reported for this sequence? ESPGLCGFLNV [BCR_Y910_Y910C]
Return: 0.72

Enquiry: Which phosphorylation enrichment is reported for this sequence? SIYKDYYRYNF [PLA2G2D_Y85]
Return: 11.1

Enquiry: Which phosphorylation enrichment is reported for this sequence? LFVDVYGPSVP [NUBPL_Y109_D105Y_YF]
Return: 0.709

Enquiry: Which phosphorylation enrichment is reported for this sequence? KWTVDYLGQVG [TYW5_Y48_S50G]
Return: 0.602

Enquiry: Which phosphorylation enrichment is reported for this sequence? LQFRNYQQLFD [MAN2A1_Y442_K440R]
Return: 1.41

Enquiry: Which phosphorylation enrichment is reported for this sequence? NLFIEYPTGSG [IRF2BPL_Y423_K418N]
Return: 0.7

Enquiry: Which phosphorylation enrichment is reported for this sequence? YMRGMYFRMTD [PLA2G6_Y541_K545T]
Return: 0.908

Enquiry: Which phosphorylation enrichment is reported for this sequence? PDMHSYVVRYN [GRIN2D_Y732_M733V]
Return: 0.844
